Reference for the values: patent US20240199542A1

Would you kindly list Pre-emergence activity against SETVI for each of these compounds?
- System: Setaria viridis (SETVI)
- assay overview: Herbicidal pre-emergence action
- Assay type: in vivo
- condition description: 1280 g/ha, graded after ca. 3 weeks
Give your result in % as a bare value.

[ask] Entry CCCC(C)OC(=O)CC1CCC(=O)N1Cc1cccc(F)c1F (racemic) has what Pre-emergence activity against SETVI?
[reply] 80

[ask] Entry COC(=O)[C@H](Cc1c[nH]cn1)NC(=O)CC1CCC(=O)N1Cc1cccc(F)c1F (single isomer, unassigned) has what Pre-emergence activity against SETVI?
[reply] 90

[ask] Entry CCOC(=O)CC1CCC(=O)N1Cc1cccc(F)c1F (racemic) has what Pre-emergence activity against SETVI?
[reply] 90

[ask] Entry C#CCOC(=O)CC1CCC(=O)N1Cc1cccc(F)c1F (racemic) has what Pre-emergence activity against SETVI?
[reply] 90

[ask] Entry C=CCOC(=O)CC1CCC(=O)N1Cc1cccc(F)c1F (racemic) has what Pre-emergence activity against SETVI?
[reply] 80

[ask] Entry C=CCCOC(=O)CC1CCC(=O)N1Cc1cccc(F)c1F (racemic) has what Pre-emergence activity against SETVI?
[reply] 80

[ask] Entry CS(=O)(=O)CCOC(=O)CC1CCC(=O)N1Cc1cccc(F)c1F (racemic) has what Pre-emergence activity against SETVI?
[reply] 80

[ask] Entry COCCOC(=O)CC1CCC(=O)N1Cc1cccc(F)c1F (racemic) has what Pre-emergence activity against SETVI?
[reply] 90

---

- Tested on: Cyperus esculentus (CYPES)
- assay overview: Herbicidal post-emergence action
- Format: in vivo
- condition description: 1280 g/ha, assessed after ca. 3 weeks
measure name: Post-emergence activity against CYPES (%)
Give your result in % as a bare value.

[ask] Enter reported Post-emergence activity against CYPES observed with Cyperus esculentus (CYPES) for C=CCOC(=O)CC1CCC(=O)N1Cc1cccc(F)c1F (racemic)
[reply] 80

[ask] Enter reported Post-emergence activity against CYPES observed with Cyperus esculentus (CYPES) for CS(=O)(=O)NC(=O)CC1CCC(=O)N1Cc1cccc(F)c1F (racemic)
[reply] 80

[ask] Enter reported Post-emergence activity against CYPES observed with Cyperus esculentus (CYPES) for O=C(O)CC1CCC(=O)N1Cc1cccc(F)c1F (single isomer, unassigned)
[reply] 80

[ask] Enter reported Post-emergence activity against CYPES observed with Cyperus esculentus (CYPES) for COCC(=O)CC(=O)CNC(=O)CC1CCC(=O)N1Cc1cccc(F)c1F (racemic)
[reply] 80

[ask] Enter reported Post-emergence activity against CYPES observed with Cyperus esculentus (CYPES) for CC[C@H](C)[C@H](NC(=O)CC1CCC(=O)N1Cc1cccc(F)c1F)C(=O)O (single isomer, unassigned)
[reply] 90

[ask] Enter reported Post-emergence activity against CYPES observed with Cyperus esculentus (CYPES) for CC(C)CNC(=O)CC1CCC(=O)N1Cc1cccc(F)c1F (racemic)
[reply] 80

---

Would you kindly list Pre-emergence activity against AVEFA for each of these compounds?
- Test system: Avena fatua (AVEFA)
- assay overview: Herbicidal pre-emergence action
- Format: in vivo
- condition description: 1280 g/ha, graded after ca. 3 weeks
Give your result in % as a bare value.

[ask] Enter reported Pre-emergence activity against AVEFA observed with Avena fatua (AVEFA) for O=C(O)CC1CCC(=O)N1Cc1cccc(F)c1F (single isomer, unassigned) [Example I-065]
[reply] 80

[ask] Enter reported Pre-emergence activity against AVEFA observed with Avena fatua (AVEFA) for CSCCOC(=O)CC1CCC(=O)N1Cc1cccc(F)c1F (racemic) [Example I-010]
[reply] 100

[ask] Enter reported Pre-emergence activity against AVEFA observed with Avena fatua (AVEFA) for O=C(O)C1CCCN1C(=O)CC1CCC(=O)N1Cc1cccc(F)c1F (racemic) [Example I-013]
[reply] 100

[ask] Enter reported Pre-emergence activity against AVEFA observed with Avena fatua (AVEFA) for O=C(O)CC1CCC(=O)N1Cc1cccc(F)c1F (single isomer, unassigned) [Example I-014]
[reply] 100

[ask] Enter reported Pre-emergence activity against AVEFA observed with Avena fatua (AVEFA) for O=C(CC1CCC(=O)N1Cc1cccc(F)c1F)NCCO (racemic) [Example I-049]
[reply] 100

[ask] Enter reported Pre-emergence activity against AVEFA observed with Avena fatua (AVEFA) for O=C(CC1CCC(=O)N1Cc1cccc(F)c1F)OCCSc1ccccc1 (racemic) [Example I-022]
[reply] 90

[ask] Enter reported Pre-emergence activity against AVEFA observed with Avena fatua (AVEFA) for CC1(C)CC(=O)C(C(=O)CC2CCC(=O)N2Cc2cccc(F)c2F)C(=O)C1 (racemic) [Example I-179]
[reply] 90

[ask] Enter reported Pre-emergence activity against AVEFA observed with Avena fatua (AVEFA) for O=C(CC1CCC(=O)N1Cc1cccc(F)c1F)OC1CCC1 (racemic) [Example I-024]
[reply] 100
